These compounds were tested on Histone deacetylase 1 (Homo sapiens, UniProt Q13547); IC50 is the recorded read-out.
Sequence (Q13547 whole entry): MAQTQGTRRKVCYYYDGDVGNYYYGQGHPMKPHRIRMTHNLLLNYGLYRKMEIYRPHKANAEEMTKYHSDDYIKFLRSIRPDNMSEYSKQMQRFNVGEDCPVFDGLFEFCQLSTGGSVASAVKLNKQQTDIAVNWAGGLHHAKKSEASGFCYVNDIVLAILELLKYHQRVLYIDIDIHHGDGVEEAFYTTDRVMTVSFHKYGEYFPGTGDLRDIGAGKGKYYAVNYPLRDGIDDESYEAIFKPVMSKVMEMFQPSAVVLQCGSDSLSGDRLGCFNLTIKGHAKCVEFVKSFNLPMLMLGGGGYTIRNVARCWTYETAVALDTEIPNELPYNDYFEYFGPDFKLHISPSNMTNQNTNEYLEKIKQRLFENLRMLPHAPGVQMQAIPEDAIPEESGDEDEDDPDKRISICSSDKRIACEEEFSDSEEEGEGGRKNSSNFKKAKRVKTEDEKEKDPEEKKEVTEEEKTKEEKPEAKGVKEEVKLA
Measured Property: IC50 (nM)

Observe how each entry below is paired with its result.
| Compound | Unit Annotation | IC50 |
| --- | --- | --- |
| CNC1CCN(C2N=CC(c3ccc(OCCCCCCC(=O)NO)c(O)c3)=C(c3ccc(C#N)c(F)c3)C2C#N)CC1 (centres undefined) | nM | 8.28 |
| N#Cc1ccc(-c2c(-c3ccc(/C=C/C(=O)NO)c(O)c3)cnc(N3CCC(NCc4ccc(/C=C/C(=O)NO)cc4)CC3)c2C#N)cc1F | nM | 10.6 |

1 = COC1=C(OCCCCCCC(=O)NO)CC(C2=C(c3ccc(C#N)c(F)c3)N=C(N3CCC(N)CC3)N3C=CNC23)C=C1 (centres undefined)
2 = Cc1ccc(-c2cnc(N3CCC(NCc4cnc(/C=C/C(=O)NO)nc4)CC3)c(C#N)c2-c2ccc(C#N)c(F)c2)cc1O
Looking at 1 and 2 , which one comes out lower in IC50 terms? Could you answer with the label of the item you picked?
2
(2: 0.43 nM, 1: 311 nM)

---

target: Lysine-specific histone demethylase 1A (Homo sapiens); assay: In Vitro Enzyme Inhibition Assay - LSD1
Measured Property: IC50 (nM)

| Compound | Unit Annotation | IC50 |
| --- | --- | --- |
| CNC1CCN(C2N=CC(c3ccc(OCCCCCCC(=O)NO)c(O)c3)=C(c3ccc(C#N)c(F)c3)C2C#N)CC1 (centres undefined) [US20250304549, Example 24] | nM | 0.41 |

A = COc1ccc(-c2cnc(N3CCC(NCc4ccc(/C=C/CC(=O)NO)cc4)CC3)c(C#N)c2-c2ccc(C#N)c(F)c2)cc1O [US20250304549, Example 169]
B = COc1ccc(C2=C(C3C=NC(C#N)=CC3)C(C#N)C(N3CCC(NCc4ccc(/C=C/C(=O)NO)cc4)CC3)C=C2)cc1O (centres undefined) [US20250304549, Example 267]
C = Cc1ccc(-c2cnc(N3CCC(NCc4cnc(/C=C/C(=O)NO)nc4)CC3)c(C#N)c2-c2ccc(C#N)c(F)c2)cc1O [US20250304549, Example 148]
Put these in order: smallest IC50 first, largest last. Answer by naming the labels in the order asked.
A, C, B
(A: 0.42 nM, C: 1.05 nM, B: 7.36 nM)

---

target: Histone deacetylase 1/8 (Homo sapiens, UniProt Q13547+Q9BY41); assay: In Vitro Enzyme Inhibition Assay - HDAC
Sequence (Q13547 whole entry): as above
Sequence (Q9BY41 whole entry): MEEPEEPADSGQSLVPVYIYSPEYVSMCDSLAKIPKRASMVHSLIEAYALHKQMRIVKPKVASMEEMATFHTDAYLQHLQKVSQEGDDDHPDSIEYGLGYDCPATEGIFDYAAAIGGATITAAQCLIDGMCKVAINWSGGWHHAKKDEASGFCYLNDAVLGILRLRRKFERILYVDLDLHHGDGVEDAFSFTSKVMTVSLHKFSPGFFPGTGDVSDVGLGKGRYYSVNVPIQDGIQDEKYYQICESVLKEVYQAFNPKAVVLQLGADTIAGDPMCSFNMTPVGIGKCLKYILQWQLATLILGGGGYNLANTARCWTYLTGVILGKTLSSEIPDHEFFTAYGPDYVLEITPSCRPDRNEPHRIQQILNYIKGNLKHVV
pIC50: −log10 of the molar value.
Measured Property: pIC50

Use these answered entries as a reference point.
| Molecule | pIC50 |
| --- | --- |
| COc1ccc(-c2cnc(N3CCCC(NCc4ccc(/C=C/C(=O)NO)cc4)CC3)c(C#N)c2-c2ccc(C#N)c(F)c2)cc1O (stereo unspecified) | 8.98 |
| Cc1ccc(-c2cnc(N3CCC(NCc4cnc(/C=C/C(=O)NO)nc4)CC3)c(C#N)c2-c2ccc(C#N)c(F)c2)cc1O | 8.61 |

I = N#Cc1ccc(-c2c(-c3ccc(/C=C/C(=O)NO)c(O)c3)cnc(N3CCC(NCc4ccc(/C=C/C(=O)NO)cc4)CC3)c2C#N)cc1F
II = COc1ccc(-c2cnc(N3CCC(NCc4ccc(/C=C/CC(=O)NO)cc4)CC3)c(C#N)c2-c2ccc(C#N)c(F)c2)cc1O
III = COc1ccc(-c2cnc(N3CCC(NCc4ccc(/C=C/C(=O)NO)cc4)CC3)c(F)c2-c2ccc(C#N)c(F)c2)cc1O
IV = O=C(/C=C/c1ccc(CNC(=O)c2cc(CN[C@@H]3C[C@H]3c3ccc(F)cc3)nc(-c3ccc(-n4cccn4)cc3)n2)cc1)NO
Please list these in order of increasing pIC50. Thank you! // respond by listing labels in the order requested
IV, II, I, III
